- Test system: HOP-62
- test-summary: NCI tumour cell line growth inhibition, 48 h
Calls of active or inactive are those of the source. Cut-off read from the data, not from the text of the source: active = GI50 up to about 1.1 µM and inactive = higher.
observation-type: GI50

Task: For the compound `N#CCN1C(=O)c2cc([N+](=O)[O-])cc3cc([N+](=O)[O-])cc(c23)C1=O` , what GI50 is on record?
Output: 18.8 µM (inactive)

====

- System: BT-549
- test-summary: NCI tumour cell line growth inhibition, 48 h
Activity calls are given as the source filed them. No stated cut-off is given here; in the data, active = GI50 up to about 1.1 µM and inactive = higher.
observation-type: GI50

Use these answered entries as a reference point.
compound: CC(C)=NOC(=O)OC[C@H]1O[C@@H](n2cnc3c(N)ncnc32)C(O)C1O (stereo partly specified)
GI50: > 100 µM (inactive)
//
compound: CCOC(=O)C(=C(SC)SC)c1nn2c(=O)cc(C)nc2s1
GI50: 18.2 µM (inactive)
//
compound: C#CCN(Cc1ccc2nc(-c3ccccc3)c(Cl)nc2c1)c1ccc(F)cc1
GI50: > 100 µM (inactive)
//
compound: CC1C(=O)OCC2=CCN3CCC(OC(=O)C(C)C1(C)O)C23 (stereo unspecified)
GI50: > 100 µM (inactive)
//
compound: C=CC(=O)N1C/C(=C\c2ccc(OC)cc2)C(=O)/C(=C/c2ccc(OC)cc2)C1
GI50: 1.71 µM (inactive)

Task: For the compound `O=[N+]([O-])c1ccc(/C=C\c2ccc3c(c2)OCO3)c([N+](=O)[O-])c1` , what GI50 is on record?
Output: 16.4 µM (inactive)

Task: Would you kindly repeat that for CCOC(=O)C1CN(C2CC2)CCC1=O (stereo unspecified) ?
Output: > 100 µM (inactive)

Task: Would you kindly repeat that for `O=C(CBr)NCCc1c[nH]c2ccccc12` ?
Output: 1.77 µM (inactive)

Task: Would you kindly repeat that for `S=C(NC/C(Br)=C/Br)Nc1cccc2ccccc12` ?
Output: 33.3 µM (inactive)

Task: Would you kindly repeat that for O=C(O)CNC(=O)C1NC(C(F)(F)F)(C(F)(F)F)OC1(C(F)(F)F)C(F)(F)F (stereo unspecified) ?
Output: > 100 µM (inactive)

Task: Would you kindly repeat that for CCc1ncc(C(C)(O)c2ccccc2)n1Cc1ccccc1 (stereo unspecified) ?
Output: 45.3 µM (inactive)
